# Tested on: Mycobacterium tuberculosis
# METHOD SUMMARY: microbe, parasite or virus in culture
# Format: cell-based
# CONDITION DESCRIPTION: Mycobacterium tuberculosis, pH 5.8, M. tb. CES, 99% (2 log) inhibition, read-out: MIC
ENDPOINT NAME: MIC (µg/mL)

| COMPOUND | TARGET SYSTEM | ENDPOINT NAME | UNITS SYMBOL | INEQUALITY SYMBOL | RECORDED MEASUREMENT |
| --- | --- | --- | --- | --- | --- |
| Cc1ccc(OC(=O)c2cnccn2)cc1 [p-Tolyl Pyrazinoate] | Mycobacterium tuberculosis | MIC | µg/mL | = | 12.5 |
| CCCOC(=O)c1cnccn1 [n-Propyl Pyrazinoate] | Mycobacterium tuberculosis | MIC | µg/mL | ≤ | 3.12 |
| C=CCOC(=O)c1cnccn1 [Allyl Pyrazinoate] | Mycobacterium tuberculosis | MIC | µg/mL | ≤ | 3.12 |
| O=C(OCC(F)(F)F)c1cnccn1 [β, β, β-Trifluoroethyl Pyrazinoate] | Mycobacterium tuberculosis | MIC | µg/mL | = | 12.5 |

---

A collection of compounds and their measured MIC
# Test system: Mycobacterium tuberculosis
# METHOD SUMMARY: microbe, parasite or virus in culture
# Assay type: cell-based
# CONDITION DESCRIPTION: Mycobacterium tuberculosis, pH 5.8, M. tb. ING, 99% (2 log) inhibition, read-out: MIC
ENDPOINT NAME: MIC

| COMPOUND | RECORDED MEASUREMENT |
| --- | --- |
| C=CCOC(=O)c1cnccn1 [Allyl Pyrazinoate] | 3.12 µg/mL |
| O=C(OCC(F)(F)F)c1cnccn1 [β, β, β-Trifluoroethyl Pyrazinoate] | 25 µg/mL |
| CCCOC(=O)c1cnccn1 [n-Propyl Pyrazinoate] | ≤ 3.12 µg/mL |
| Cc1ccc(OC(=O)c2cnccn2)cc1 [p-Tolyl Pyrazinoate] | 25 µg/mL |

---

# Tested on: Mycobacterium tuberculosis
# METHOD SUMMARY: microbe, parasite or virus in culture
# Assay type: cell-based
# CONDITION DESCRIPTION: Mycobacterium tuberculosis, pH 5.8, M. tb. BUR, 99% (2 log) inhibition, read-out: MIC
Entries and their MIC
ENDPOINT NAME: MIC (µg/mL)

| MOLECULE | TARGET SYSTEM | ENDPOINT NAME | INEQUALITY SYMBOL | RECORDED MEASUREMENT |
| --- | --- | --- | --- | --- |
| CCCOC(=O)c1cnccn1 [n-Propyl Pyrazinoate] | Mycobacterium tuberculosis | MIC | ≤ | 3.12 |
| C=CCOC(=O)c1cnccn1 [Allyl Pyrazinoate] | Mycobacterium tuberculosis | MIC | = | 6.25 |
| Cc1ccc(OC(=O)c2cnccn2)cc1 [p-Tolyl Pyrazinoate] | Mycobacterium tuberculosis | MIC | = | 12.5 |
| O=C(OCC(F)(F)F)c1cnccn1 [β, β, β-Trifluoroethyl Pyrazinoate] | Mycobacterium tuberculosis | MIC | = | 25 |

---

Measured MIC, listed per entry.
# System: Mycobacterium tuberculosis
# METHOD SUMMARY: microbe, parasite or virus in culture
# Assay type: cell-based
# CONDITION DESCRIPTION: Mycobacterium tuberculosis, pH 5.8, M. tb. DUB, 99% (2 log) inhibition, read-out: MIC
ENDPOINT NAME: MIC (mg/L)

| COMPOUND | ENDPOINT NAME | INEQUALITY SYMBOL | RECORDED MEASUREMENT |
| --- | --- | --- | --- |
| O=C(OCC(F)(F)F)c1cnccn1 [β, β, β-Trifluoroethyl Pyrazinoate] | MIC | = | 25 |
| Cc1ccc(OC(=O)c2cnccn2)cc1 [p-Tolyl Pyrazinoate] | MIC | = | 25 |
| CCCOC(=O)c1cnccn1 [n-Propyl Pyrazinoate] | MIC | ≤ | 3.12 |
| C=CCOC(=O)c1cnccn1 [Allyl Pyrazinoate] | MIC | = | 6.25 |
